readout: log10 IC50 (log10 of the value in nM)
A difference of one corresponds to tenfold IC50; all values are log10 with IC50 in nM.

Return log10 IC50 measured with Egl nine homolog 1 (Homo sapiens) given this compound: `O=C(O)CNC(=O)c1ncc(C#CCOc2cccc(Cl)c2)cc1O`
Sequence (Q9GZT9 whole entry): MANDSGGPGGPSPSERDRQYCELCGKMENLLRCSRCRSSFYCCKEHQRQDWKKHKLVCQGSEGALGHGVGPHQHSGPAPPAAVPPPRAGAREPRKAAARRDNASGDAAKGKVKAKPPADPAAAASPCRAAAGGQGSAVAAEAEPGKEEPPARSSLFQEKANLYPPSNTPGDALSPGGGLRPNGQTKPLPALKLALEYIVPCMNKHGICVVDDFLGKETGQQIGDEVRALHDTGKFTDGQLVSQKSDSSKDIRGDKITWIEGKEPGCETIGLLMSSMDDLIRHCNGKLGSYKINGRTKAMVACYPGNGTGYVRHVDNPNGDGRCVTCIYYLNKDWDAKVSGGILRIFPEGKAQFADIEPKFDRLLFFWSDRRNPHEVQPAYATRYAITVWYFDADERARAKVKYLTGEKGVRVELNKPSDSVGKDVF
2.77

Return log10 IC50 measured with Egl nine homolog 1 (Homo sapiens) given this compound: O=C(O)CNC(=O)c1ncc(C#CCOc2ccc(Cl)cc2)cc1O [DDO-3055]
1.81

Return log10 IC50 measured with Egl nine homolog 1 (Homo sapiens) given this compound: `COc1ccccc1OCC#Cc1cnc(C(=O)NCC(=O)O)c(O)c1`
2.34

Return log10 IC50 measured with Egl nine homolog 1 (Homo sapiens) given this compound: `O=C(O)CNC(=O)c1ncc(C#CCOc2ccc(-c3ccccc3)cc2)cc1O`
2.92

Return log10 IC50 measured with Egl nine homolog 1 (Homo sapiens) given this compound: `N#Cc1ccc(OCC#Cc2cnc(C(=O)NCC(=O)O)c(O)c2)cc1`
2.42

Return log10 IC50 measured with Egl nine homolog 1 (Homo sapiens) given this compound: `O=C(O)CNC(=O)c1ncc(C#CCOc2cccc(F)c2)cc1O`
2.41

Return log10 IC50 measured with Egl nine homolog 1 (Homo sapiens) given this compound: `O=C(O)CNC(=O)c1ncc(C#CCOCc2ccc(Cl)cc2)cc1O`
1.93
